Tested System: GABA-A receptor; alpha-5/beta-3/gamma-2 (Homo sapiens, UniProt P18507+P28472+P31644)
Sequence (P18507 whole entry, one chain of several): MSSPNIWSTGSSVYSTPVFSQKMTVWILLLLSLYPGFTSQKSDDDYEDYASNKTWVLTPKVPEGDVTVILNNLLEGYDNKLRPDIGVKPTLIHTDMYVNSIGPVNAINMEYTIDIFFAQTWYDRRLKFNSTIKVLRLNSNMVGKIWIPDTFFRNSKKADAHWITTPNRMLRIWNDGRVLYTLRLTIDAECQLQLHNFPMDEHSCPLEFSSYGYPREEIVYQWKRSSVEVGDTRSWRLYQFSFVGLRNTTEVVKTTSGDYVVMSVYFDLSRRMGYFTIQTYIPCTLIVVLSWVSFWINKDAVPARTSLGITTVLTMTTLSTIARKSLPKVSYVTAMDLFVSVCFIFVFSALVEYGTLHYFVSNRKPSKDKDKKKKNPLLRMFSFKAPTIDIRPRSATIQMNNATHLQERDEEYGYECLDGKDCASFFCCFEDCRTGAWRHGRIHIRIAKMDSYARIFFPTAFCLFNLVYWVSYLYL
Sequence (P28472 whole entry, one chain of several): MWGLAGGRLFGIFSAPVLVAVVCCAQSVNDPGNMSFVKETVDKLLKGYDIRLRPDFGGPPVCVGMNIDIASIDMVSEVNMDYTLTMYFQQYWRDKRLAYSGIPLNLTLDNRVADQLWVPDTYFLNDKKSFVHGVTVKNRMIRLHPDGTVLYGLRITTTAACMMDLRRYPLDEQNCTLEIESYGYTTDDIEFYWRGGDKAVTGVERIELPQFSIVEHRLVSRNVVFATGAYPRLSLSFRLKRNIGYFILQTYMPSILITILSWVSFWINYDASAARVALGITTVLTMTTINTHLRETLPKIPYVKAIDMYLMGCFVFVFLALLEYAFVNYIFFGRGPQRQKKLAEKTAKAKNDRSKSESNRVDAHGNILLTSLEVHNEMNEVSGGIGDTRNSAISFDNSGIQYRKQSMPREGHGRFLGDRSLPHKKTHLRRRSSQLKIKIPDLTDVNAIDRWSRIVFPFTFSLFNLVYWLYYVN
Procedure Details: Binding affinity to GABAA alpha-5-beta-3-gamma-2 receptor
Property Name: pKi
Give bare numbers, as −log10 of the molar value.

Problem: I'm curious: which pKi was measured for CN1CC2C(C(=O)OC(C)(C)C)=NCN2c2ccc(C#C[Si](C)(C)C)cc2C1=O (stereo unspecified) tested on GABA-A receptor; alpha-5/beta-3/gamma-2 (Homo sapiens, UniProt P18507+P28472+P31644)?
Solution: 8.58

====

Tested System: Gamma-aminobutyric acid receptor subunit alpha-5 (Homo sapiens, UniProt P18507+P31644+P47870)
Sequence (P31644 whole entry, one chain of several): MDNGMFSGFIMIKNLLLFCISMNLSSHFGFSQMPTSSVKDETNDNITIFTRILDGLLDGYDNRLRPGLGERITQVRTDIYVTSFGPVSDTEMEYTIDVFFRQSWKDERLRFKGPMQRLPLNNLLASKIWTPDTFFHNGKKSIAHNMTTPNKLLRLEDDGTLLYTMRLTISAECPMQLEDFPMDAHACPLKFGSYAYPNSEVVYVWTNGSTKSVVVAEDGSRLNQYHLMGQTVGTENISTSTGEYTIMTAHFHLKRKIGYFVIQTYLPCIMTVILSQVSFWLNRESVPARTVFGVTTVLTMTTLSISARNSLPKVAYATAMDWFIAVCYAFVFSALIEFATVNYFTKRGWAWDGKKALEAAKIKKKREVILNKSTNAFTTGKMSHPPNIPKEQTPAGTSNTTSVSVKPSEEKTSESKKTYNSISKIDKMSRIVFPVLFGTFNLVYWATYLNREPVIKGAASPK
Procedure Details: Binding affinity to GABAA alpha-5-beta-2-gamma-2 receptor
Would you mind telling me the reported Kd of each entry?
Answers are plain numbers, in µM.

Quick request: Kd for each listed item, please.
1. COCc1c(C(=O)OC(C)C)ncc2[nH]c3ccc(OCc4ccccc4)cc3c12
2. COC(=O)c1cc2c(cn1)[nH]c1ccccc12

Solution:
0.0084
0.058

Go through the list and state Kd for each entry.
1. COc1ccc(-n2nc3c4ccccc4[nH]cc-3c2=O)cc1
2. CCOC(=O)c1[nH]cc2nc3cc(OC)c(OC)cc3c-2c1CC
3. O=C1C2C=Nc3ccccc3C2=NN1c1ccc(Cl)cc1 (centres undefined)

Solution:
0.005
0.001
0.04

Data provenance is ChEMBL document CHEMBL1157475.
